Tested on: THP-1 cells
Experiment: Macrophage
Type: cell-based, human
Details: vs L. donovani DD8 intracellular amastigotes, 96 h incubation
Experimental Readout: Selectivity THP-1 cells

Completed entries (count: 3):
Problem: Give the measured Selectivity THP-1 cells for C[C@@H]1[C@H](O)[C@@H](C)/C=C/C=C/C=C/C=C/C=C/C=C/C=C/[C@H](O[C@@H]2O[C@H](C)[C@@H](O)[C@H](N)[C@@H]2O)C[C@@H]2O[C@](O)(C[C@@H](O)C[C@@H](O)[C@H](O)CC[C@@H](O)C[C@@H](O)CC(=O)O[C@H]1C)C[C@H](O)[C@H]2C(=O)O [Amphotericin B, reference compound]
Solution: 10.24

Problem: Give the measured Selectivity THP-1 cells for CCCCCCCCCCCCCCCCOP(=O)([O-])OCC[N+](C)(C)C [Miltefosine, miltefosine, reference compound]
Solution: >7.87

Problem: Give the measured Selectivity THP-1 cells for CCOc1ccc(Nc2c3c(nc4ccccc24)CCC3)cc1 [BZ1]
Solution: >33.89

Proceeding to the next molecule to report its Selectivity THP-1 cells.
Problem: Give the measured Selectivity THP-1 cells for c1ccc(Oc2ccc(Nc3c4c(nc5ccccc35)CCC4)cc2)cc1 [BZ1-I]
Solution: >49.12

* * *

Experiment: Distribution coefficient estimation using chromatography
Assay type: physicochemical
Details: pH 7.4
Experimental Readout: chromatographic logD
Answers are plain numbers.

Problem: Give the measured chromatographic logD for CCOc1ccc(Nc2c3c(nc4ccccc24)CCC3)cc1 [BZ1]
Solution: 5

* * *

Test system: L. donovani MHOM/IN/80/DD8 intracellular amastigotes
Assay: L. donovani MHOM/IN/80/DD8 intracellular amastigote assay
Format: cell-based, Leishmania donovani
Details: Leishmania donovani, THP-1, 96 h, read-out: IC50 (µM) [mean ± SD]
I'd appreciate it if you could supply IC50 values for the items below.
Give bare numbers, in µM.

Problem: // fetch IC50 for CCCCCCCCCCCCCCCCOP(=O)([O-])OCC[N+](C)(C)C [Miltefosine, miltefosine, reference compound] ; system: L. donovani MHOM/IN/80/DD8 intracellular amastigotes
Solution: 2.54

Lab note: each compound below needs its IC50 filled in.
1. CCOc1ccc(Nc2c3c(nc4ccccc24)CCC3)cc1 [BZ1]
2. C[C@@H]1[C@H](O)[C@@H](C)/C=C/C=C/C=C/C=C/C=C/C=C/C=C/[C@H](O[C@@H]2O[C@H](C)[C@@H](O)[C@H](N)[C@@H]2O)C[C@@H]2O[C@](O)(C[C@@H](O)C[C@@H](O)[C@H](O)CC[C@@H](O)C[C@@H](O)CC(=O)O[C@H]1C)C[C@H](O)[C@H]2C(=O)O [Amphotericin B, reference compound]
3. c1ccc(Oc2ccc(Nc3c4c(nc5ccccc35)CCC4)cc2)cc1 [BZ1-I]

Solution:
1. 0.59
2. 0.2
3. 0.4
